Each item that follows carries a reported PBM binding z-score.
Test system: PPARg homodimer (NR concentration 180 nM)
protocol details: PBM binding z-score (relative to random genomic background probes); higher = stronger binding; sequences stand for … in GC…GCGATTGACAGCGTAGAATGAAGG
The reply should be a number, written without any unit.

ACGGACAGGTGAGTGAAGGTAACTCAGCTGGACG :: -0.338
TCTCGGAGGACACGAAAGGTCATAGCTCGACATC :: 3.48
ACTCGGAGGACAAAAGTCAGAGCTACGCCAGTGA :: 0.0197
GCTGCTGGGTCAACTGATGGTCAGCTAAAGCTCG :: 1.55
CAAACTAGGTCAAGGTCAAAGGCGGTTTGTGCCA :: 4.11
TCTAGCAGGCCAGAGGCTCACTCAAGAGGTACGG :: -1.71

State the recorded PBM binding z-score for this entry: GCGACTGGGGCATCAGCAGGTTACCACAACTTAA
0.249

State the recorded PBM binding z-score for this entry: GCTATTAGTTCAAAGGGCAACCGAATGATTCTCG
2.2
